B1: C1orf137 (parent)
chain: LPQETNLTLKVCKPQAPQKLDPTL

# Variants of: B1
# PROTOCOL DESCRIPTION: protein stability index of a GFP-peptide fusion (GPS, HEK-293T) (PSI 1-6); higher = more stable;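 also: lentivirally expressed fusions sorted by FACS into six bins by GFP to DsRed ratio, PSI derived from sequencing read proportions per bin multiplied by bin number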
# RUN CONDITIONS: c terminus: a fixed tail appended
Lab note: anything with protein stability index at or over 4 counts as y; the rest go in n.

# SEQUENCE CHAIN, ANSWER LABEL
measured = [
    ("LPQETNLTLLVCKPQAPQKLDPTL [K10L]", "n"),
    ("LPQETNLTLKVCKPQAPQKLDQTL [P22Q]", "y"),
    ("LPQETNLTLKVCKPQAPQKLDVTL [P22V]", "n"),
    ("LPQETNLTLKVCGPQAPQKLDPTL [K13G]", "y"),
    ("LPQETNLTLKVCKPQLPQKLDPTL [A16L]", "n"),
    ("LPQYTNLTLKVCKPQAPQKLDPTL [E4Y]", "n"),
    ("LPQETNLTLKVCKPQAPQKLDPTG [L24G]", "y"),
    ("LPQETNLTLKVCKPQAPQHLDPTL [K19H]", "n"),
    ("LPQETNLTLKVCKPYAPQKLDPTL [Q15Y]", "n"),
    ("LFQETNLTLKVCKPQAPQKLDPTL [P2F]", "n"),
    ("LPQETNLTLKVCKPQAPQKLCPTL [D21C]", "n"),
    ("LPQERNLTLKVCKPQAPQKLDPTL [T5R]", "n"),
    ("LPQETNLTLKVCKPQAPQKLDPTD [L24D]", "y"),
    ("LPQETNETLKVCKPQAPQKLDPTL [L7E]", "y"),
    ("LPQETNLTLKVCKPQAPQKLDPDL [T23D]", "y"),
    ("LPQETNLTLKVCKPQAPQKYDPTL [L20Y]", "y"),
    ("LPQETNLTLKVKKPQAPQKLDPTL [C12K]", "y"),
    ("LPQETNSTLKVCKPQAPQKLDPTL [L7S]", "y"),
    ("LYQETNLTLKVCKPQAPQKLDPTL [P2Y]", "n"),
    ("LPQETTLTLKVCKPQAPQKLDPTL [N6T]", "n"),
    ("LPQETNLTLKVCKSQAPQKLDPTL [P14S]", "y"),
    ("LPQETNLTLVVCKPQAPQKLDPTL [K10V]", "n"),
    ("LPQETNPTLKVCKPQAPQKLDPTL [L7P]", "y"),
    ("LWQETNLTLKVCKPQAPQKLDPTL [P2W]", "n"),
    ("LPQETNLTLNVCKPQAPQKLDPTL [K10N]", "y"),
    ("LPQETNLTLKVCKPQAMQKLDPTL [P17M]", "n"),
    ("LPQETNLTLKVCKPQAPQKLQPTL [D21Q]", "n"),
    ("LRQETNLTLKVCKPQAPQKLDPTL [P2R]", "n"),
    ("LPQETNLTLKVCKPQAPQKADPTL [L20A]", "y"),
    ("LPQETNLTLKVCKPQAPQKLDMTL [P22M]", "n"),
    ("LPQETNLTLKVCSPQAPQKLDPTL [K13S]", "y"),
    ("LPQETSLTLKVCKPQAPQKLDPTL [N6S]", "n"),
    ("LPQETNLTLKVCKPQAPQKEDPTL [L20E]", "y"),
    ("LPQETNLTLKWCKPQAPQKLDPTL [V11W]", "n"),
    ("YPQETNLTLKVCKPQAPQKLDPTL [L1Y]", "n"),
    ("LPQETNLTLKVCKPQAPQKLDPQL [T23Q]", "y"),
    ("LPQETNLTLKVCKPQAPQKLDLTL [P22L]", "n"),
    ("LPQETNLTLKVCKPQAQQKLDPTL [P17Q]", "y"),
    ("LPQQTNLTLKVCKPQAPQKLDPTL [E4Q]", "n"),
    ("LPQWTNLTLKVCKPQAPQKLDPTL [E4W]", "n"),
    ("LPQETNLTLKDCKPQAPQKLDPTL [V11D]", "y"),
    ("LPQETLLTLKVCKPQAPQKLDPTL [N6L]", "n"),
]
